Tested On: KRAS WT (Homo sapiens, UniProt P01116+P62937)
Sequence (P01116 1-169 isoform P01116-2 limits assumed): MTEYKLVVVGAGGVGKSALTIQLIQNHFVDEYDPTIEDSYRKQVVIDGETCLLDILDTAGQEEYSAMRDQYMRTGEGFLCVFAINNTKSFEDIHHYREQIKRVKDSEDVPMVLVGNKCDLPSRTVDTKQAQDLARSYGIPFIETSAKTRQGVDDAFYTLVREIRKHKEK
Sequence (P62937 whole entry): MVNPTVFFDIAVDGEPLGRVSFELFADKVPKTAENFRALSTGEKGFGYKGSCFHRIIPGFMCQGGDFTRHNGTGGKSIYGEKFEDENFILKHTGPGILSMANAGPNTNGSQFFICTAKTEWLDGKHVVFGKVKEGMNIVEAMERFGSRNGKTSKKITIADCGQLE
Test Name: Disruption of BRAF RBD interaction with Ras (FRET / MOA assay, with Cyclophilin A)
Type: biochemical
Run Parameters: KRAS WT; read-out: KRAS WT FRET data IC50

Compound	IC50
CCn1c(-c2cnccc2COC)c2c3cc(ccc31)-c1cc(O)cc(c1)C[C@H](NC(=O)[C@H](C(C)C)N(C)C(=O)[C@H]1CCN(C(C)C)C1)C(=O)N1CCC[C@H](N1)C(=O)OCC(C)(C)C2	100 to 1000 nM
CCn1c(-c2cccnc2[C@H](C)OC)c2c3cc(ccc31)-c1cc(O)cc(c1)C[C@H](NC(=O)[C@H](C(C)C)N(C)C(=O)[C@H]1CCN(C(=O)OC(C)(C)C)C1)C(=O)N1CCC[C@H](N1)C(=O)OCC(C)(C)C2	100 to 1000 nM
CCn1c(-c2cccnc2[C@H](C)OC)c2c3cc(ccc31)-c1csc(n1)C[C@H](NC(=O)[C@H](C(C)C)N(C)C(=O)N1C[C@@H]3CN(C)CC[C@@H]31)C(=O)N1CCC[C@H](N1)C(=O)OCC(C)(C)C2	1000 to 10000 nM
CCn1c(-c2cccnc2[C@H](C)OC)c2c3cc(ccc31)-c1csc(n1)C[C@H](NC(=O)[C@H](C(C)C)N(C)C(=O)N1CC3CCN(C)CC31)C(=O)N1CCC[C@H](N1)C(=O)OCC(C)(C)C2 (stereo partly shown)	1000 to 10000 nM
